Measurement protocol: MRT in Wistar rat at 15 mg/kg, po
Format: ADME, organism-based
Condition summary: in vivo
Measure: MRT (h)

CCc1ccc([C@@H]2c3[nH]c4ccccc4c(=O)c3CN2c2ncc(-c3ccccn3)cn2)s1    6.7
CCc1ccc([C@@H]2c3[nH]c4ccccc4c(=O)c3CN2c2ncc(-c3ccccn3)cn2)o1    9.4

---

Species: Homo sapiens
Measurement protocol: Selectivity ratio of IC50 for N-terminal GST-tagged full length recombinant human PDE6C to IC50 for N-terminal GST-tagged full length recombinant human PDE5A1 catalytic domain
Measure: Ratio IC50

CCc1ccc([C@H]2c3[nH]c4ccccc4c(=O)c3CN2c2ncc(-c3ccccn3)cn2)s1    1.3
CCc1ccc(C2c3[nH]c4ccccc4c(=O)c3CN2c2ncccn2)o1 (stereo not drawn)    2
CCc1ccc([C@H]2c3[nH]c4ccccc4c(=O)c3CN2c2ncc(-c3ccccn3)cn2)o1    3.9
CCc1ccc(C2c3[nH]c4ccccc4c(=O)c3CN2c2ncc(-c3ccccn3)cn2)o1 (racemic)    4.3

a: CCc1ccc([C@@H]2c3[nH]c4ccccc4c(=O)c3CN2c2ncc(-c3ccccn3)cn2)o1
b: CCc1ccc(C2c3[nH]c4ccccc4c(=O)c3CN2c2ncccn2)s1 (stereo not drawn)
c: CCc1ccc([C@@H]2c3[nH]c4ccccc4c(=O)c3CN2c2ncc(-c3ccccn3)cn2)s1
d: CCc1ccc(C2c3[nH]c4ccccc4c(=O)c3CN2c2ncc(-c3ccccn3)cn2)s1 (racemic)
Query: Please list these in order of increasing Ratio IC50. Thank you! Return the labels ranked in the requested order, please.
Response: b, c, a, d

---

Measurement protocol: Half life in Wistar rat at 15 mg/kg, po
Format: ADME, organism-based
Condition summary: in vivo
Measure: half-life (h)

I: CCc1ccc([C@@H]2c3[nH]c4ccccc4c(=O)c3CN2c2ncc(-c3ccccn3)cn2)o1
II: CCc1ccc([C@@H]2c3[nH]c4ccccc4c(=O)c3CN2c2ncc(-c3ccccn3)cn2)s1
Query: Which of these two has the smaller recorded half-life: I or II ? Refer to your chosen entry by its label in the reply.
Response: II

---

Measurement protocol: AUC (0 to infinity) in Wistar rat at 15 mg/kg, po
Assay type: ADME, organism-based
Design: dose 15 mg/kg, route oral, time infinity
Condition summary: Wistar, in vivo
Measure: AUC(0-inf) (µg·h/mL)
Field: numeric (µg·h/mL). Do not append units.

Query: Could you share which AUC(0-inf) value was measured for CCc1ccc([C@@H]2c3[nH]c4ccccc4c(=O)c3CN2c2ncc(-c3ccccn3)cn2)o1 ?
Response: 0.345

---

Measurement protocol: Half life in Wistar rat at 2 mg/kg, iv
Format: ADME, organism-based
Condition summary: in vivo
Measure: half-life (h)

a: CCc1ccc([C@@H]2c3[nH]c4ccccc4c(=O)c3CN2c2ncc(-c3ccccn3)cn2)s1
b: CCc1ccc([C@@H]2c3[nH]c4ccccc4c(=O)c3CN2c2ncc(-c3ccccn3)cn2)o1
Query: Which of these two has the smaller recorded half-life: a or b ? Refer to your chosen entry by its label in the reply.
Response: a
(a: 1.9 h, b: 2.9 h)

---

Test target: Dual 3',5'-cyclic-AMP and -GMP phosphodiesterase 11A (Homo sapiens, UniProt Q9HCR9)
Sequence (Q9HCR9 whole entry): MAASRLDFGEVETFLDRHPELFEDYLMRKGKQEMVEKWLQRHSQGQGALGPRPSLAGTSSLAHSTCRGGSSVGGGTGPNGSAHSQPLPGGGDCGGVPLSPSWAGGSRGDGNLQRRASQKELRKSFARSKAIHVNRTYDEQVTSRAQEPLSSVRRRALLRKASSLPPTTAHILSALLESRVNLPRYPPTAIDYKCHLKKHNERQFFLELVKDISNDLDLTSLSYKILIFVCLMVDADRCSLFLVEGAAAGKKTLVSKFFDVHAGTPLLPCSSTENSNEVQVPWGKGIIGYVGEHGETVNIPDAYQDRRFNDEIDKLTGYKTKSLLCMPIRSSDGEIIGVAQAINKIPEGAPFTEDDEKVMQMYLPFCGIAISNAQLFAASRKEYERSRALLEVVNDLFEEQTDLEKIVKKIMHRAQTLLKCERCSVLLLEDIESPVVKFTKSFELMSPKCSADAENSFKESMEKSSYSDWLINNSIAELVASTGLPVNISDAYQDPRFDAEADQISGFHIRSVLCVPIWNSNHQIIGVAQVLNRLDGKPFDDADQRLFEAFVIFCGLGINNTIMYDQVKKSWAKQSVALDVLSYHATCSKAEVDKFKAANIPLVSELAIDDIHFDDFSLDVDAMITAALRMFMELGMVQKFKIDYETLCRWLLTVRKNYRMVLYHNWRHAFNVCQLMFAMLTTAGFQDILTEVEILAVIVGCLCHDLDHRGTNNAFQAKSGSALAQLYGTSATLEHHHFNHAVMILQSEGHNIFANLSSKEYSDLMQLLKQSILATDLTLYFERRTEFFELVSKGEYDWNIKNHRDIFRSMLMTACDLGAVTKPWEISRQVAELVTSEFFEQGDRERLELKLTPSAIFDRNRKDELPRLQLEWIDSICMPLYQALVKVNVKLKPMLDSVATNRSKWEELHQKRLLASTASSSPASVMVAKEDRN
Measurement protocol: Inhibition of N-terminal GST-tagged full length recombinant human PDE11A expressed in Baculovirus infected Sf9 insect cells using FAM-cAMP as substrate after 1 hr by fluorescence polarization assay
Measure: IC50 (nM)

A: CCc1ccc([C@@H]2c3[nH]c4ccccc4c(=O)c3CN2c2ncc(-c3ccccn3)cn2)s1
B: CCc1ccc([C@@H]2c3[nH]c4ccccc4c(=O)c3CN2c2ncc(-c3ccccn3)cn2)o1
Query: Between the entries labelled A and B , which has a larger IC50 value on record? Refer to your chosen entry by its label in the reply.
Response: B
